Read-out: Vascular cell adhesion molecule 1 (VCAM1), VCAM1 (gene 7412)
assay overview: BSK_4H_VCAM1: BioMAP Diversity Plus: 4H Assay for Vascular cell adhesion molecule 1 (VCAM1) Biomarker Activity (AID 2283033)
condition details: primary human endothelial cells (HUVEC); actives raise or lower the signal
Calls of active or inactive are those of the source. The calls were made as follows: active = hit-call score of the fitted dose curve at least 0.9, where 1 is the maximum; inactive = score below 0.9.
Choose the fitting class; nothing outside Y for active, N for inactive is accepted.

>>> qualitative_label("C[C@]12CC[C@@H]3c4ccc(O)cc4CC[C@H]3[C@@H]1C[C@@H](O)[C@@H]2O")
"N"
>>> qualitative_label("O=P(O)(O)CCC(F)(F)C(F)(F)C(F)(F)C(F)(F)C(F)(F)C(F)(F)C(F)(F)C(F)(F)F")
"N"
>>> qualitative_label("C=CC(C)(CCC=C(C)C)OC(C)=O (stereo unspecified)")
"Y"
>>> qualitative_label("Oc1ccc(Cc2ccccc2O)cc1")
"N"
>>> qualitative_label("CS(=O)(=O)c1ccc([C@@H](CC2CCCC2)C(=O)Nc2cnccn2)cc1Cl")
"N"

Q: What was the test verdict on CCCCCCCCCCCCCCC ?
Ans: N

Q: What was the test verdict on CCCCC(CC)C(=O)O (stereo unspecified) ?
Ans: N

Q: What was the test verdict on O=C(CCCN1CCC(O)(c2ccc(Cl)cc2)CC1)c1ccc(F)cc1 ?
Ans: Y

Q: What was the test verdict on O=C(O)CCC(F)(F)C(F)(F)C(F)(F)C(F)(F)C(F)(F)F ?
Ans: N

Q: What was the test verdict on Oc1cc2ccccc2cc1O ?
Ans: N

Q: What was the test verdict on O=P(O)(O)CCC(F)(F)C(F)(F)C(F)(F)C(F)(F)C(F)(F)C(F)(F)F ?
Ans: N
